Data origin: patent US20260207602A1

Target: EGFR (d746-750) (Homo sapiens, UniProt P00533, DEL746-750)
Construct: purchased SignalChem E10-122JG
Sequence (P00533 with tags, fused parts or gaps DEL746-750 limits assumed): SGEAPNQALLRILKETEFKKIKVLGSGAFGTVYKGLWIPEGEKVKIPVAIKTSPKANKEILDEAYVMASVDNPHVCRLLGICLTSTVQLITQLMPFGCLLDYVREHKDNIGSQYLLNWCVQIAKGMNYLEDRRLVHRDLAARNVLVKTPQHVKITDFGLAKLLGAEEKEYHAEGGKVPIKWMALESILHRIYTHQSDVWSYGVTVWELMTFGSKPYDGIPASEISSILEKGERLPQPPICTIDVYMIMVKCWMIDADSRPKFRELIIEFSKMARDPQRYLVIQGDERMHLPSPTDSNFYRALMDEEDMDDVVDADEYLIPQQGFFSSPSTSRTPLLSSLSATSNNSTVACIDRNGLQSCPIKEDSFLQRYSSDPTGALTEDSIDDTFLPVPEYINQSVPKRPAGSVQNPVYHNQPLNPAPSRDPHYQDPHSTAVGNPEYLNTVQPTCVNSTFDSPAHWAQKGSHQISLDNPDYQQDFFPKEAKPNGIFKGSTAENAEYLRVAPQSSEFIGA
Assay: Biochemical EGFR inhibition assay (Caliper mobility shift), EGFR (d746-750)
Settings: biochemical Caliper mobility shift assay, EGFR Exon 19-del enzyme; read-out: Enz EGFR Exon 19-del IC50
pIC50: −log10 of the molar value.
parameter: pIC50

| compound | parameter | observed measurement |
| --- | --- | --- |
| C[C@@H]1OC[C@@H]1Oc1cc(-c2cnn(C)c2)cc2ncnc(Nc3ccc4ncsc4c3)c12 (racemic) | pIC50 | ≥ 8.00 |
| Cn1cc(-c2cc(O[C@H]3C[C@@H](O)C3)c3c(Nc4ccc5ncsc5c4)ncnc3c2)cn1 | pIC50 | ≥ 8.00 |
| Cn1cc(-c2cc(O[C@H]3CC[C@@H](O)CC3)c3c(Nc4ccc5ncsc5c4)ncnc3c2)cn1 | pIC50 | ≥ 8.00 |

stdin: Need pIC50 of C[C@@H](Oc1cc(-c2cnn(C)c2)cc2ncnc(Nc3ccc4ncsc4c3F)c12)[C@H]1CCOC1 (single isomer, unassigned) , thanks.
stdout: ≥ 8.00

---

Target: EGFR L858R (Homo sapiens, UniProt P00533, L858R)
Construct: purchased SignalChem E10-122BG
Sequence (P00533 25-1210 L858R): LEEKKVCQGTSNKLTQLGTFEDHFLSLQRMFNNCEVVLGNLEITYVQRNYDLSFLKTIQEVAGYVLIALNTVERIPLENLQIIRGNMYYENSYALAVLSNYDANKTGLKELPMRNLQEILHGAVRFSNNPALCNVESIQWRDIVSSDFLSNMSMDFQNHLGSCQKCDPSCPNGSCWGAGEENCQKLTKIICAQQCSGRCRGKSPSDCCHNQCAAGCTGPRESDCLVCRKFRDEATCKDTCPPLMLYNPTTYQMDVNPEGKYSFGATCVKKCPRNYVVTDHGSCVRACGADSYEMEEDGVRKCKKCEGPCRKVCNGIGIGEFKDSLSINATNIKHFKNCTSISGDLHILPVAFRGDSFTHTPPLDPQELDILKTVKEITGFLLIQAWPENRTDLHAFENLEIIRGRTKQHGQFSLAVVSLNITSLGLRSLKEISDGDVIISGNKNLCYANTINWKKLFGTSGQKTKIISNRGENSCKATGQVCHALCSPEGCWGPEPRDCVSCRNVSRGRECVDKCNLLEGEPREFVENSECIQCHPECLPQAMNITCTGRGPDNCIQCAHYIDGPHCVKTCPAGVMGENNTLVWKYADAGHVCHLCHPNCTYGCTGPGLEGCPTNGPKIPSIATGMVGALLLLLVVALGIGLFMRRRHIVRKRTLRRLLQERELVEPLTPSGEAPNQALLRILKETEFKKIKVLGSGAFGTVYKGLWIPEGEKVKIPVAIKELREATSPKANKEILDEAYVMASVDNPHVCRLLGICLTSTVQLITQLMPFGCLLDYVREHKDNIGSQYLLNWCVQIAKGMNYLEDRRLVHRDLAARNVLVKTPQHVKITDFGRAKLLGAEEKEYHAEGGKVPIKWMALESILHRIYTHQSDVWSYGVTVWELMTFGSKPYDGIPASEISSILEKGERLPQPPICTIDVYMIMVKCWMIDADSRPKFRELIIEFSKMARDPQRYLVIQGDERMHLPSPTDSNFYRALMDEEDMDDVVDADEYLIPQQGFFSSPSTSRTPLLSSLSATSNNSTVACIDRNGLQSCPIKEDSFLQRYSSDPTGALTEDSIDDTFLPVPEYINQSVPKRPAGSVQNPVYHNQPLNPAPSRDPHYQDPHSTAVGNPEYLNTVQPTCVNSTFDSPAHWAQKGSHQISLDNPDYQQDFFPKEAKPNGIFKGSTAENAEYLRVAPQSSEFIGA
Assay: Biochemical EGFR inhibition assay (Caliper mobility shift), EGFR L858R
Settings: biochemical Caliper mobility shift assay, EGFR L858R enzyme; read-out: Enz EGFR L858R IC50
pIC50: −log10 of the molar value.
parameter: pIC50

Consider the reported pIC50 for these molecules:
| molecule | observed measurement |
| --- | --- |
| Cn1cc(-c2cc(OCC3CCOC3)c3c(Nc4ccc5ncsc5c4)ncnc3c2)cn1 (single isomer, unassigned) [Example 41] | ≥ 8.00 |
| CN1CC[C@@](C)(COc2cc(-c3cnn(C)c3)cc3ncnc(Nc4ccc5ncsc5c4)c23)C1=O (single isomer, unassigned) [Example 56] | ≥ 8.00 |

Could you now consider this next molecule?
stdin: # get_value(readout='pIC50', item= COc1nn(C)cc1-c1cc(O[C@H]2CCN(C)C[C@H]2F)c2c(Nc3ccc4ncsc4c3)ncnc2c1 )
stdout: ≥ 8.00

---

Reported pIC50 values follow for various compounds
Biological target: intracellular phosphorylation of EGFR (Tyr1068) in PC-9 cells (Homo sapiens, UniProt P00533, DEL746-750)
Sequence (P00533 with tags, fused parts or gaps DEL746-750): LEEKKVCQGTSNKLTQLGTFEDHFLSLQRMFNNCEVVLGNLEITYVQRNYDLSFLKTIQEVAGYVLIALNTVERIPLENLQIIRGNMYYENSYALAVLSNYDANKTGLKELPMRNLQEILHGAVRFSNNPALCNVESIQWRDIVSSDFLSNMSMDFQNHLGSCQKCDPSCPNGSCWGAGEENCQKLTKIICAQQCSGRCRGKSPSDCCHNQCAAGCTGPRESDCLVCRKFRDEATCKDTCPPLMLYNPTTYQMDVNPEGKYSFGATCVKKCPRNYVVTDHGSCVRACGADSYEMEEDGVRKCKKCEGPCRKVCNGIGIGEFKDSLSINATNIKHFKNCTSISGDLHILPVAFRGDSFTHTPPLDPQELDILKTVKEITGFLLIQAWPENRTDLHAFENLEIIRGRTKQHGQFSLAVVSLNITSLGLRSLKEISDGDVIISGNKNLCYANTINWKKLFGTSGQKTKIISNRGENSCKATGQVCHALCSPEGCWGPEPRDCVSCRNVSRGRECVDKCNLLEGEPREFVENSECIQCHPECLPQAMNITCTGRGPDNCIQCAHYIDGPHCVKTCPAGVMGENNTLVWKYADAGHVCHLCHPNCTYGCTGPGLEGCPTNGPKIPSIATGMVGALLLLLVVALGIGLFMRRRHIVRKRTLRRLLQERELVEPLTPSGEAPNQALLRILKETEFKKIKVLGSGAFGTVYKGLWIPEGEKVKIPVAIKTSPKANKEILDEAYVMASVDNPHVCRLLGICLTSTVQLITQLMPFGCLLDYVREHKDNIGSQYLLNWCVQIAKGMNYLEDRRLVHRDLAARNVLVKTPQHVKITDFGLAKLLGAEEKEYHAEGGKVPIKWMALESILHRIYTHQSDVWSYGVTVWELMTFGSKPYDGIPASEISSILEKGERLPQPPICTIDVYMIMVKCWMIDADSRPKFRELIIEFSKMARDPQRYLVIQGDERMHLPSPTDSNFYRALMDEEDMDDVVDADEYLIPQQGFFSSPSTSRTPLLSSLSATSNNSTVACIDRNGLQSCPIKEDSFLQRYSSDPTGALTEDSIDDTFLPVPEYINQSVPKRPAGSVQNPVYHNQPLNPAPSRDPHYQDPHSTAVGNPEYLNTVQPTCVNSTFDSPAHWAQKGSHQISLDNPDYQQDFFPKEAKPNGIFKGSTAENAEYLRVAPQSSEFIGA
Assay: PC-9 pEGFR AlphaLISA assay
Conditions: 4 hours incubation, read-out: Phos EGFR PC9 IC50
pIC50: −log10 of the molar value.

| compound | pIC50 |
| --- | --- |
| Cn1cc(-c2cc(OC3COCOC3)c3c(Nc4ccc5ncsc5c4)ncnc3c2)cn1 | 7.30 to 8.00 |
| Cn1cc(-c2cc(O[C@@H]3CCOC3)c3c(Nc4ccc5ncsc5c4)ncnc3c2)cn1 | 7.30 to 8.00 |
| CN1CC[C@@](C)(COc2cc(-c3cnn(C)c3)cc3ncnc(Nc4ccc5ncsc5c4)c23)C1=O (single isomer, unassigned) [Example 56] | 7.30 to 8.00 |
| COc1cc2ncnc(Nc3ccc4ncsc4c3)c2cc1NC(=O)N1C[C@H]2CCN(C)[C@H]2C1 | 7.30 to 8.00 |
| COCCOc1cc(O[C@H](C)C2COC2)c2c(Nc3ccc4ncsc4c3)ncnc2c1 | ≥ 8.00 |
| CN1CCC(Oc2cc(-c3cnn(C(F)F)c3)cc3ncnc(Nc4ccc5ncsc5c4)c23)CC1 | 7.30 to 8.00 |
| COc1cc2ncnc(Nc3ccc4ncsc4c3)c2cc1-c1cnn([C@@H]2CCN(C)C[C@@H]2F)c1 (racemic) | ≥ 8.00 |
| Cn1cc(-c2cc(OC3COCC3(F)F)c3c(Nc4ccc5ncsc5c4)ncnc3c2)cn1 (stereo not shown) | 7.30 to 8.00 |

stdin: // pIC50 lookup, key: C[C@@H](Oc1cc(-c2cnn(C(C)(C)CO)c2)cc2ncnc(Nc3ccc4ncsc4c3)c12)C1COC1 (single isomer, unassigned)
stdout: ≥ 8.00

stdin: I am curious: what pIC50 value has been reported for C[C@@H]1CN(c2cc(O[C@H](C)C3COC3)c3c(Nc4ccc5ncsc5c4F)ncnc3c2)CCN1C (single isomer, unassigned) [Example 102] ?
stdout: ≥ 8.00

stdin: I have this compound here, C[C@@H](Oc1cc(N2CCN(C)[C@@H](C)C2)cc2ncnc(Nc3ccc4ncsc4c3F)c12)C1COC1 (single isomer, unassigned) [Example 98] , and I need its recorded pIC50.
stdout: 7.30 to 8.00

stdin: GET /values?readout=pIC50&item= COc1nn(C)cc1-c1cc(O[C@H]2CCCN(C)C2)c2c(Nc3ccc4ncsc4c3)ncnc2c1
stdout: ≥ 8.00

stdin: Endpoint output: pIC50 of C[C@@H](CN(C)C)Oc1cc(-c2cnn(C)c2)cc2ncnc(Nc3ccc4ncsc4c3)c12 (single isomer, unassigned) [Example 160] . Value?
stdout: ≥ 8.00
